Provenance of the data: the supplement of paper PMC11417369

Hi there, I'd appreciate the recorded gcPBM binding intensity (ln) for every entry that follows.
system: PF3D7_0420300 AP2 domain 1 (GST-tagged); test: gcPBM binding intensity (ln(normalized median fluorescence intensity)); higher = stronger DNA binding
In all, about 25,000 sequences were measured (“ln(normalized median fluorescence intensity)”: median about 9.3, highest 2% from about 10 on). This excerpt belongs to a sample that is enriched for the highest values.
Quick one: just the number, no unit, thanks!

Query: gcPBM binding intensity (ln) lookup needed for AAAACAAACAGACACACACACATATTTATATTTATA [CACACA_site7681] , thanks.
Response: 10.1

Query: gcPBM binding intensity (ln) lookup needed for CACAGACACGGACACACACACATATATATATATATA [CACACA_site5248] , thanks.
Response: 9.86

Query: gcPBM binding intensity (ln) lookup needed for TAAATTAAAAAACACACACACAAAAAAAAAAAAAAA [CACACA_site2263] , thanks.
Response: 10

Query: gcPBM binding intensity (ln) lookup needed for TATATATGTATCATTACACACATGTATACTTATTTG [CACACA_site4138] , thanks.
Response: 9.71

Query: gcPBM binding intensity (ln) lookup needed for AATTAACAAAAACACACACACACACCGACAAAAAAA [CACACA_site4444] , thanks.
Response: 10.3

Query: gcPBM binding intensity (ln) lookup needed for TATATACCTATATACACACACATATATAAATAAATA [CACACA_site7341] , thanks.
Response: 9.86

Query: gcPBM binding intensity (ln) lookup needed for CCCATTTTGACAAAAAGTACAAGTTCAGGTTTTATA [XGTACX_site1532] , thanks.
Response: 9.22

Query: gcPBM binding intensity (ln) lookup needed for CATACATACATACATACACACATACCTATATTTATA [CACACA_site6769] , thanks.
Response: 9.79

Query: gcPBM binding intensity (ln) lookup needed for TTTTACAAATATTACTGTACACATTTTCATATAATT [XGTACX_site17] , thanks.
Response: 9.49

Query: gcPBM binding intensity (ln) lookup needed for TATGTTAAAAAAAAAAAAAAGAAAAAAATAAAAGGA [CACACA_negctrl_site119] , thanks.
Response: 9.44

Query: gcPBM binding intensity (ln) lookup needed for CATACACCCAGACACACACACATATATATATATATA [CACACA_site634] , thanks.
Response: 9.94

Query: gcPBM binding intensity (ln) lookup needed for CACAAAAATAGACACACACACATATAAATAAATATA [CACACA_site6598] , thanks.
Response: 10

Query: gcPBM binding intensity (ln) lookup needed for CACAGACACGGACACACACACACACCCAGACACATA [CACACA_site4357] , thanks.
Response: 10.2

Query: gcPBM binding intensity (ln) lookup needed for GTTTGTATGTCCAAATGTACATATGATTTTATGAAA [XGTACX_site6595] , thanks.
Response: 9.2

Query: gcPBM binding intensity (ln) lookup needed for ACCATACATACATACACACACACACGCATATTTATA [CACACA_site7386] , thanks.
Response: 10.4

Query: gcPBM binding intensity (ln) lookup needed for TCTTATAAACTCTGCACACATAATATATTAAATGAG [CACACA_site1936] , thanks.
Response: 9.31

Query: gcPBM binding intensity (ln) lookup needed for AAAAAAAAAAAAAGTACACACATACCTATAAATATA [CACACA_site6937] , thanks.
Response: 9.8

Query: gcPBM binding intensity (ln) lookup needed for GATAGAAAAAAATAATGTACACACACATATATGTTT [XGTACX_site392] , thanks.
Response: 9.72

Query: gcPBM binding intensity (ln) lookup needed for TGATATCTTAAGAAATGTACAAAGATATAACCATTT [XGTACX_site1913] , thanks.
Response: 9.11

Query: gcPBM binding intensity (ln) lookup needed for TTATATTAAACAAACACACACATATATATATATATA [CACACA_site2382] , thanks.
Response: 9.53

Query: gcPBM binding intensity (ln) lookup needed for AAAAAACAGACATACACACACACACGGATATTTATA [CACACA_site7570] , thanks.
Response: 10.3

Query: gcPBM binding intensity (ln) lookup needed for AAAGAAAAATTAACATGTACAAAAATTACTTGTTCA [XGTACX_site6725] , thanks.
Response: 9.21

Query: gcPBM binding intensity (ln) lookup needed for TGATCAATGGATTTAACACACAAAAAAAAAAAAAAA [CACACA_site3845] , thanks.
Response: 9.11

Query: gcPBM binding intensity (ln) lookup needed for TATATAAATAGACACACACACATATAAATATAAATA [CACACA_site6503] , thanks.
Response: 10.1

Query: gcPBM binding intensity (ln) lookup needed for CCCACAGACGGACACACACACATATATATATATATA [CACACA_site4351] , thanks.
Response: 9.81

Query: gcPBM binding intensity (ln) lookup needed for ATAATTATATTTTATTCACACATCGTTATATAGTAA [CACACA_site4743] , thanks.
Response: 9.31

Query: gcPBM binding intensity (ln) lookup needed for ACAAATGGAACTCCTACAAAAAATTTCCATAATATT [XGTACX_negctrl_site132] , thanks.
Response: 9.16

Query: gcPBM binding intensity (ln) lookup needed for AGTTAATGAATAGGCACACATATATCTGTATAAATA [CACACA_site4448] , thanks.
Response: 9.47

Query: gcPBM binding intensity (ln) lookup needed for TACCTATACCTATACACACACACACGGAAATAAATA [CACACA_site6750] , thanks.
Response: 10.3

Query: gcPBM binding intensity (ln) lookup needed for AAATAATTCATATGTTGTACAGTAATTAAATTTTCT [XGTACX_site6343] , thanks.
Response: 9.08

Query: gcPBM binding intensity (ln) lookup needed for CAAAAAAAGTTATACACACACACACGGATATAAATA [CACACA_site6619] , thanks.
Response: 10.1

Query: gcPBM binding intensity (ln) lookup needed for ATTTATTAAAAGAAATGTACAGAAAATGTTTGGAAT [XGTACX_site7187] , thanks.
Response: 9.26

Query: gcPBM binding intensity (ln) lookup needed for `TATATTTTATATATGGTGCAACTTTTATTTAAATAA` , thanks.
Response: 8.77

Query: gcPBM binding intensity (ln) lookup needed for TACAGATACGGACACACACACACACCCAGACAAAAA [CACACA_site4432] , thanks.
Response: 10

Query: gcPBM binding intensity (ln) lookup needed for AATTAACAAAAACACACACACACACCCACAAAAAAA [CACACA_site517] , thanks.
Response: 10.1

Query: gcPBM binding intensity (ln) lookup needed for CCCACAGACGGACACACACACACACCGACACATATA [CACACA_site4356] , thanks.
Response: 10.2

Query: gcPBM binding intensity (ln) lookup needed for ATTATGAAATATCGTGCACACACGAATAATATAAGA [CACACA_site1294] , thanks.
Response: 9.42

Query: gcPBM binding intensity (ln) lookup needed for TTGGCATACGGACACACACACACACCCAGACATATA [CACACA_site4492] , thanks.
Response: 10.2

Query: gcPBM binding intensity (ln) lookup needed for CCCACAGACGGACACACACACACATATATATATATA [CACACA_site4352] , thanks.
Response: 10.1
